- Test system: human Factor XI mRNA
- MEASUREMENT_DESCRIPTION: Antisense inhibition in HepG2 cells by microwalk gapmers, 75 nM, lipofectin (Example 3)
- Assay type: cell-based
- RECORDED_CONDITIONS: HepG2 cells, 75 nM, oligonucleotides targeted to nucleobases 738 to 762 of SEQ ID NO: 1
- Method: These gapmers were designed by creating gapmers shifted slightly upstream and downstream (i.e. “microwalk”) of the original gapmers from Table 3. Gapmers were also created with various motifs, e.g. 5-10-5 MOE, 3-14-3 MOE, and 2-13-5 MOE. […] After a treatment period of approximately 24 hours, RNA was isolated from the cells and Factor XI mRNA levels were measured by quantitative real-time PCR. Factor XI mRNA levels were adjusted according to total RNA content, as measured by RIBOGREEN®. […]
In the oligonucleotide strings, read from the 5' end, every base follows the letter of its sugar. An asterisk marks phosphorothioate; unmarked linkages are phosphodiester. Other units and linkages are bracketed, terminal groups are in braces. A string of capitals states the bases alone. e = 2'-O-(2-methoxyethyl) (MOE); [5mC] = 5-methylcytosine; d = 2'-deoxy (DNA)
Record form. Attribute: % inhibition of human Factor XI mRNA levels. Fill in for each entry.
The answer should read as a number with its unit following.

Look at this substance and give its reported % inhibition of human Factor XI mRNA levels. 416830 (antisense eT*e[5mC]*e[5mC]*eG*eT*dG*d[5mC]*dA*dT*d[5mC]*dT*dT*dT*d[5mC]*dT*eT*eG*eG*e[5mC]*eA) [compound 416830] 81%

What value of % inhibition of human Factor XI mRNA levels has been recorded for this entry: 416832 (antisense e[5mC]*eA*eT*e[5mC]*e[5mC]*dG*dT*dG*d[5mC]*dA*dT*d[5mC]*dT*dT*dT*e[5mC]*eT*eT*eG*eG) [compound 416832] 79%

Return reported % inhibition of human Factor XI mRNA levels; argument: 416899 (antisense eT*e[5mC]*e[5mC]*dG*dT*dG*d[5mC]*dA*dT*d[5mC]*dT*dT*dT*d[5mC]*dT*dT*dG*eG*e[5mC]*eA) [compound 416899] 86%

###

- MEASUREMENT_DESCRIPTION: Tolerability in Sprague-Dawley rats: body and organ weight (Example 19)
- Assay type: in vivo
- RECORDED_CONDITIONS: 50 mg/kg s.c. twice per week for 6 weeks, change over weight at start of study
Kindly supply the reported Percent change in Body weight values for the records listed here.
# number only, unit % dropped from output

What does the record list as Percent change in Body weight for 416864 (antisense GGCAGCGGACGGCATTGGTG; 5-10-5 gapmer, wing sugar chemistry not given here, further chemistry not given here) [compound 416864] ? −24

What value of measured Percent change in Body weight is listed for 416892 (antisense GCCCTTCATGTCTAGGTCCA; 3-14-3 chimeric gapmer, wing sugar chemistry not given here, further chemistry not given here) [compound 416892] ? −39

I'd like to know its Percent change in Body weight. The substance in question is 416850 (antisense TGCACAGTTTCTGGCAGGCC; 5-10-5 gapmer, wing sugar chemistry not given here, further chemistry not given here) [compound 416850] −33

Would you kindly share the measured Percent change in Body weight for 416858 (antisense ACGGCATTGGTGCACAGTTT; 5-10-5 gapmer, wing sugar chemistry not given here, further chemistry not given here) [compound 416858] ? −21

// query Percent change in Body weight value for entry 417002 (antisense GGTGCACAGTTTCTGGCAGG; 2-13-5 gapmer, wing sugar chemistry not given here, further chemistry not given here) [compound 417002] −29

###

- System: Factor XI protein
- MEASUREMENT_DESCRIPTION: Cynomolgus monkeys: plasma Factor XI protein ELISA (Example 30)
- Type: in vivo
- RECORDED_CONDITIONS: 25 mg/kg s.c.; plasma ELISA; Day 52
In the oligonucleotide strings, read from the 5' end, every base follows the letter of its sugar. An asterisk marks phosphorothioate; unmarked linkages are phosphodiester. Other units and linkages are bracketed, terminal groups are in braces. A string of capitals states the bases alone. e = 2'-O-(2-methoxyethyl) (MOE); [5mC] = 5-methylcytosine; d = 2'-deoxy (DNA)
Classify on Inhibition of Factor XI protein relative to the PBS control using lower segment (below 6%), middle segment (6% to below 50%), upper segment (50% or more)

Place this substance in its band: 449707 (antisense e[5mC]*eA*e[5mC]*eA*dG*dT*dT*dT*d[5mC]*dT*dG*dG*e[5mC]*eA*eG*eG) [compound 449707] middle segment

In plain terms, what class is 416850 (antisense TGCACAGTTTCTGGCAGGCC; 5-10-5 gapmer, wing sugar chemistry not given here, further chemistry not given here) [compound 416850] ? upper segment

Each substance maps to one class by Inhibition of Factor XI protein relative to the PBS control. Which class for 445522 (antisense eG*e[5mC]*eA*e[5mC]*eA*dG*dT*dT*dT*d[5mC]*dT*dG*dG*e[5mC]*eA*eG*eG*e[5mC]) [compound 445522] ? upper segment

State the class of the substance shown: 445531 (antisense eG*eG*e[5mC]*eA*eT*dT*dG*dG*dT*dG*d[5mC]*dA*d[5mC]*eA*eG*eT*eT*eT) [compound 445531] middle segment

Would you mind sorting 449710 (antisense e[5mC]*eA*e[5mC]*dA*dG*dT*dT*dT*d[5mC]*dT*dG*dG*d[5mC]*eA*eG*eG) [compound 449710] into the appropriate category? lower segment

Classify this substance: 449711 (antisense eA*e[5mC]*dA*dG*dT*dT*dT*d[5mC]*dT*dG*dG*d[5mC]*eA*eG) [compound 449711] lower segment

Given 416858 (antisense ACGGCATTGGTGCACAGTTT; 5-10-5 gapmer, wing sugar chemistry not given here, further chemistry not given here) [compound 416858] , name the class its Inhibition of Factor XI protein relative to the PBS control places it in. upper segment

Which band does 449709 (antisense eG*e[5mC]*eA*e[5mC]*dA*dG*dT*dT*dT*d[5mC]*dT*dG*dG*d[5mC]*eA*eG*eG*e[5mC]) [compound 449709] fall in? middle segment

###

- System: human Factor XI mRNA
- MEASUREMENT_DESCRIPTION: Dose-dependent inhibition in HepG2 cells, lipofectin (Example 4)
- Format: cell-based
- RECORDED_CONDITIONS: 37.5 nM, 16 hours
In the oligonucleotide strings, read from the 5' end, every base follows the letter of its sugar. An asterisk marks phosphorothioate; unmarked linkages are phosphodiester. Other units and linkages are bracketed, terminal groups are in braces. A string of capitals states the bases alone. e = 2'-O-(2-methoxyethyl) (MOE); [5mC] = 5-methylcytosine; d = 2'-deoxy (DNA)
What percent inhibition of Factor XI mRNA, relative to untreated control cells was measured for each of the following?
Write the answer as a number in %, unit excluded.

What value of percent inhibition of Factor XI mRNA, relative to untreated control cells has been reported for the following substance? 416931 (antisense eG*eG*e[5mC]*dA*dT*dT*dG*dG*dT*dG*d[5mC]*dA*d[5mC]*dA*dG*dT*dT*eT*e[5mC]*eT) [compound 416931] 57

I have this substance here, 416945 (antisense eA*eA*dT*dG*dT*d[5mC]*dT*dT*dT*dG*dT*dT*dG*d[5mC]*dA*eA*eG*e[5mC]*eG*e[5mC]) [compound 416945] , and I need its recorded percent inhibition of Factor XI mRNA, relative to untreated control cells. 62

For the substance shown here, 416896 (antisense eT*eT*eA*dT*dG*d[5mC]*d[5mC]*d[5mC]*dT*dT*d[5mC]*dA*dT*dG*dT*d[5mC]*dT*eA*eG*eG) [compound 416896] , give the reported percent inhibition of Factor XI mRNA, relative to untreated control cells. 57

Can you share its percent inhibition of Factor XI mRNA, relative to untreated control cells? I mean this substance: 416895 (antisense eT*eA*eT*dG*d[5mC]*d[5mC]*d[5mC]*dT*dT*d[5mC]*dA*dT*dG*dT*d[5mC]*dT*dA*eG*eG*eT) [compound 416895] 66

Param item = 416923 (antisense eT*eG*e[5mC]*dA*d[5mC]*dA*dG*dT*dT*dT*d[5mC]*dT*dG*dG*d[5mC]*dA*dG*eG*e[5mC]*e[5mC]) [compound 416923] ; retrieve measured percent inhibition of Factor XI mRNA, relative to untreated control cells. 60

###

Give ALT for every item shown.
- MEASUREMENT_DESCRIPTION: Tolerability in Sprague-Dawley rats: liver function (Example 23)
- Format: in vivo
- RECORDED_CONDITIONS: plasma, 50 mg/kg s.c. twice per week for 6 weeks
Field: numeric (IU/L). Do not append units.

What value of ALT has been recorded for this entry: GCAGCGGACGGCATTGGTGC (antisense; all C 5-methyl, all phosphorothioate, sugars by position not given here; MOE gapmer, 5-10-5) [ISIS 412225, 5-10-5 MOE gapmer] 48

Name the reported ALT value associated with the sequence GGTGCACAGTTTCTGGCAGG (all C 5-methyl, all phosphorothioate, sugars by position not given here; MOE gapmer) [ISIS 413481, 5-10-5 MOE gapmer] 54

// query ALT value for entry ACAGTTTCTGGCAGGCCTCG (antisense; all C 5-methyl, all phosphorothioate, sugars by position not given here; MOE gapmer, 5-10-5) [ISIS 412223, 5-10-5 MOE gapmer] 85

// query ALT value for entry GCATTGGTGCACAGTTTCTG (antisense; all C 5-methyl, all phosphorothioate, sugars by position not given here; MOE gapmer, 5-10-5) [ISIS 412224, 5-10-5 MOE gapmer] 84

Value lookup for ALT; key = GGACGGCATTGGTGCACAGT (antisense; all C 5-methyl, all phosphorothioate, sugars by position not given here; MOE gapmer, 5-10-5) [ISIS 413482, 5-10-5 MOE gapmer] 59
